Hey, just so you know, these numbers are from patent US10968193B2.

molecular target: human GPR40 (Homo sapiens, UniProt O14842); construct: expressed in transfected cells; host or cells: HEK cells stably expressing the aequorin reporter; assay: Inositol Phosphate Turnover (IP1) Assay 3; assay type: cell-based; settings: HEK cells stably expressing human GPR40
Sequence (O14842 whole entry): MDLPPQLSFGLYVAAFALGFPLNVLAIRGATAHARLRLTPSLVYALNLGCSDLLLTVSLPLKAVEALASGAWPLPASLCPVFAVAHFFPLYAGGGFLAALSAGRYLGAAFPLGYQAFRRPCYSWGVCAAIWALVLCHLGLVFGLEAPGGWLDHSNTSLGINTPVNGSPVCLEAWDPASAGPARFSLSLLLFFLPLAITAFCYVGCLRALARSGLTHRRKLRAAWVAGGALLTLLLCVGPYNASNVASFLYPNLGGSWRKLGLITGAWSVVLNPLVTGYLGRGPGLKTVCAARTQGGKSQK
recorded_metric: EC50 (nM)
# output: bare number, implied unit nM

Here is how some compounds turned out for EC50.
1. COc1cc(-c2ccc(C3CCc4ccc([C@H](C5CC5)[C@H](C)C(=O)O)cc4O3)cc2CN2C(C)(C)CCCC2(C)C)c(F)cn1 (some centres unmarked); 0.09
2. COc1cc(-c2ccc(C3CCc4ccc([C@H](C5CC5)[C@H](C)C(=O)O)cc4O3)cc2C(CN2CCCC2)OC)ccn1 (single isomer, unassigned) [Example 178]; 136
3. COc1cc(-c2ccc(C3CCc4ccc([C@H](C5CC5)[C@@H](C)C(=O)O)cc4O3)cc2CN(C(C)C)C(C)C)ccn1 (some centres unmarked); 4

Return EC50 for the following compound: COc1cc(-c2ccc(C3CCc4ccc([C@H](C5CC5)[C@H](C)C(=O)O)cc4O3)c(CN3CCCC[C@H]3C)c2)ccn1 (single isomer, unassigned) [Example 120b]
41

Name the recorded EC50 of the item CCN(Cc1cc(C2CCc3ccc([C@H](C4CC4)[C@H](C)C(=O)O)cc3O2)c(F)cc1-c1ccnc(OC)c1)C(C)C (single isomer, unassigned) [Example 186] in your answer.
7.9

Please report the measured EC50 for COc1cc(-c2ccc(C3CCc4ccc([C@H](C5CC5)[C@H](C)C(=O)O)cc4O3)cc2CN2CCCCC23CC3)c(C#N)cn1 (some centres unmarked)
0.08

Given the compound COc1cc(-c2ccc(C3CCc4ccc([C@H](C5CC5)[C@H](C)C(=O)O)cc4O3)c(CN(C)C(C)(C)C)c2)c(F)cn1 (mixture of isomers) [Example 125] , write its reported EC50.
2.2

Please give the documented EC50 of CCN(C(C)C)C(C)c1cc(C2CCc3ccc([C@H](C4CC4)[C@H](C)C(=O)O)cc3O2)ccc1-c1ccnc(OC)c1 (single isomer, unassigned) [Example 247]
1.3

Find the measured EC50 of CCN(CC)Cc1nc(C2CCc3ccc([C@H](C4CC4)[C@H](C)C(=O)O)cc3O2)ccc1-c1cc(OC)ncc1F (single isomer, unassigned) [Example 89] and report it.
0.9

Specify measured EC50 for COc1cc(-c2ccc(C3CCc4ccc([C@H](C5CC5)[C@H](C)C(=O)O)cc4O3)cc2CN(C(C)C)C(C)(C)C)c(F)cn1 (some centres unmarked) .
0.07

Hello, please tell me recorded EC50 for this one: COc1cc(-c2ccc(C3CCc4ccc([C@H](C5CC5)[C@H](C)C(=O)O)cc4O3)c(CN3CCCC[C@H]3C)c2)c(F)cn1 (single isomer, unassigned) [Example 130a]
8.7

====

biological target: human GPR40 (Homo sapiens, UniProt O14842); construct: expressed in transfected cells; host or cells: HEK cells stably expressing the aequorin reporter; assay: Inositol Phosphate Turnover (IP1) Assay 3; type: cell-based; details: HEK cells stably expressing human GPR40
Collected log10 of EC50 values appear next to each entry.
Response schema: value (number) is log10 of EC50 in units of nM.

As a guide, the following entries are already answered.
1. COc1cc(-c2ccc(C3CCc4ccc([C@H](C5CC5)[C@H](C)C(=O)O)cc4O3)c(CN(C(C)C)C(C)C)c2)ccn1 (mixture of isomers) [Example 115]; -1.00
2. COc1cc(-c2ccc([C@@H]3CCc4ccc([C@H](C5CC5)[C@H](C)C(=O)O)cc4O3)cc2CN(C(C)C)C(C)C)ccn1; -0.52
3. CCOc1cc(-c2ccc(C3CCc4ccc([C@H](C5CC5)[C@H](C)C(=O)O)cc4O3)cc2CN(CC)CC)c(Cl)cn1 (single isomer, unassigned) [Example 215]; 0.78
4. CCN(CC)Cc1cc(C2CCc3ccc([C@H](C4CC4)[C@H](C)C(=O)O)cc3O2)ccc1-c1cc(OC)ncc1C#N (mixture of isomers) [Example 197]; 0.46
5. CCOc1cc(-c2ccc(C3CCc4ccc([C@H](C5CC5)[C@H](C)C(=O)O)cc4O3)cc2CN2CCCC2)c(F)cn1 (single isomer, unassigned) [Example 174]; 1.43

Find log10 of EC50 for COc1cc(-c2ccc(C3CCc4ccc([C@H](C5CC5)[C@H](C)C(=O)O)cc4O3)cc2CN2CCC3CC32)c(F)cn1 (single isomer, unassigned) [Example 256a] on human GPR40 (Homo sapiens, UniProt O14842) and write it down.
-0.22

State measured log10 of EC50 of the compound COc1cc(-c2ccc(C3CCc4ccc([C@H](C5CC5)[C@H](C)C(=O)O)cc4O3)c(CN3[C@H](C)CC[C@H]3C)c2)ccn1 (some centres unmarked) [Example 116] with human GPR40 (Homo sapiens, UniProt O14842).
2.02
